Answer each item with its documented IC50.
# System: PC-3 (p53 null)
# experimental_details: Cell growth inhibition (WST-8, 4 days), PC3;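 note: PC-3 is a human prostate cancer line, cultured with test compound throughout the 4-day growth assay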
# Format: cell-based, human
# assay_setup: PC3, p53 null, individual determinations and mean ± SD lines, read-out: PC3 IC50
Give bare numbers, in µM.

molecule	measurement_kind	endpoint_value
CC(C)(C)C[C@H]1N[C@@H](C(=O)NCCc2ncc[nH]2)[C@H](c2cccc(Cl)c2)[C@@]12C(=O)Nc1cc(Cl)c(F)cc12 [MI-319-21]	IC50	14.1

Below: the item to evaluate.
Enter recorded IC50 with PC-3 (p53 null) for COC(C)(C)C[C@H]1N[C@@H](C(=O)NCC[C@H](O)CO)[C@H](c2ccc(F)c(Cl)c2)[C@@]12C(=O)Nc1cc(Cl)c(F)cc12 [MI-319-7] here.
34.3

###

# Test system: HCT116 p53KO
# experimental_details: Cell growth inhibition (WST-8), HCT116 p53KO
# Format: cell-based
# assay_setup: Homo sapiens, HCT-116, HCT116 p53KO; individual determinations and mean ± SD lines; read-out: HCT116 p53KO IC50
Answer each item with its documented IC50.
Numbers only, in µM.

given_smiles	endpoint_value
CC(C)(C)C[C@H]1N[C@@H](C(=O)NCCn2ccnc2)[C@H](c2ccc(F)c(Cl)c2)[C@@]12C(=O)Nc1cc(Cl)c(F)cc12	25.1
O=C(NCC[C@H](O)CO)[C@@H]1N[C@H](CC2CCCC2)[C@]2(C(=O)Nc3cc(Cl)c(F)cc32)[C@H]1c1ccc(F)c(Cl)c1	12.7

Below: the item to evaluate.
Annotate the compound O=C(NCC[C@H](O)CO)[C@@H]1N[C@H](C2CCCC2)[C@]2(C(=O)Nc3cc(Cl)c(F)cc32)[C@H]1c1ccc(F)c(Cl)c1 with its measured IC50.
30.9

###

# Tested on: LNCaP (p53 wild-type)
# experimental_details: Cell growth inhibition (WST-8, 4 days), LNCaP;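 note: LNCaP human prostate cancer cells exposed to compound for 4 days, with inhibition of cell growth as the measured effect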
# Assay type: cell-based, human
# assay_setup: Homo sapiens, 96 h, individual determinations and mean ± SD lines, read-out: LNCaP IC50
measurement_kind: pIC50
Numbers only, as −log10 of the molar value.

Value sought for every listed compound: pIC50.
1. CC(C)(C)C[C@H]1N[C@@H](C(=O)NC[C@H](O)[C@H](O)CO)[C@H](c2ccc(F)c(Cl)c2)[C@@]12C(=O)Nc1cc(Cl)c(F)cc12
2. O=C(NCC[C@H](O)CO)[C@@H]1N[C@H](CC2CCCC2)[C@]2(C(=O)Nc3cc(Cl)c(F)cc32)[C@H]1c1ccc(F)c(Cl)c1

1. 5.91
2. 6.58

Value sought for every listed compound: pIC50.
1. CC(C)(C)C[C@H]1N[C@@H](C(=O)NCCn2ccnc2)[C@H](c2ccc(F)c(Cl)c2)[C@@]12C(=O)Nc1cc(Cl)c(F)cc12
2. O=C(NCC[C@H](O)CO)[C@@H]1N[C@H](C2CCCCC2)[C@]2(C(=O)Nc3cc(Cl)c(F)cc32)[C@H]1c1ccc(F)c(Cl)c1

[5.96, 5.85]

###

# System: HCT116 p53KO
# experimental_details: Cell growth inhibition (WST-8), HCT116 p53KO;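 note: cells in 96-well plates exposed to compound for 4 days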
# Format: cell-based
# assay_setup: HCT116 p53KO; individual determinations and mean ± SD lines; read-out: HCT116 p53KO IC50
Answer each item with its documented pIC50.
Give bare numbers, as −log10 of the molar value.

given_smiles	pIC50
O=C(NCC[C@H](O)CO)[C@@H]1N[C@H](CC2CCCC2)[C@]2(C(=O)Nc3cc(Cl)c(F)cc32)[C@H]1c1ccc(F)c(Cl)c1	4.98

Enter recorded pIC50 with HCT116 p53KO for CC(C)(C)C[C@H]1N[C@@H](C(=O)NCCc2ncc[nH]2)[C@H](c2cccc(Cl)c2)[C@@]12C(=O)Nc1cc(Cl)c(F)cc12 here.
4.88
